Cited source for all entries: ChEMBL document CHEMBL4017509

# testedOn: Bile acid receptor (Homo sapiens)
# Sequence (Q96RI1 whole entry): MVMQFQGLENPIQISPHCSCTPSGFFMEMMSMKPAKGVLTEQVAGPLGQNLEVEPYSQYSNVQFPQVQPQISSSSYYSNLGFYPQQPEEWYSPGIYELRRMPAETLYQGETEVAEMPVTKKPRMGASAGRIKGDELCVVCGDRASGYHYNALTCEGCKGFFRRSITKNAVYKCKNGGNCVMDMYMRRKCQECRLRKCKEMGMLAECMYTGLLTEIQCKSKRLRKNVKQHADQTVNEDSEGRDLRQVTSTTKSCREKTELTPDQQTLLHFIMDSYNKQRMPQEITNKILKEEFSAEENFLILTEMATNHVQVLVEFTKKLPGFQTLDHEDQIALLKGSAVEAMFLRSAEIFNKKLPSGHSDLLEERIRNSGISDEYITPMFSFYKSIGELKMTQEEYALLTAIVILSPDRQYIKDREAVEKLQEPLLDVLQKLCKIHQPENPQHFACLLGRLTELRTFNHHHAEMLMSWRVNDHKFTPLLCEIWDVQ
# procedureSummary: Transactivation of human FXR expressed in human HeLa cells co-expressing BSEP after 24 hrs by dual-glo luciferase reporter gene assay
assayEndpoint: log10(EC50) (log10 of the value in nM)

• CC(C)(C)c1ccc(C(=O)NCc2cccc(C(=O)O)c2)cc1 = 3.23
• CC(C)(C)c1ccc(C(=O)NCc2ccc(-c3nnn[nH]3)cc2)cc1 = 2.08
• CC(C)(C)c1ccc(C(=O)NCc2ccc(C=O)cc2)cc1 = 3.72
• O=C(O)c1ccc(CNC(=O)c2cccc(-c3ccccc3)c2)cc1 = 2.83
• CNC(=O)c1ccc(CNC(=O)c2ccc(C(C)(C)C)cc2)cc1 = 2.53
• CC(C)(C)c1ccc(C(=O)NCc2ccc(OC(F)(F)F)cc2)cc1 = 2.20
• CC(C)(C)c1ccc(C(=O)NCc2ccc(CCC(=O)O)cc2)cc1 = 2.54
• CC(C)(C)c1ccc(C(=O)NCc2ccc(NC(=O)C(F)(F)F)cc2)cc1 = 2.41
